- assay: Metabolic stability in mouse plasma at 10 uM measured at 60 mins
- Type: ADME, cell-free
- particulars: read-out: Stability
Decide using remaining at 1 h, 10 µM alone. Strictly below 20%: condition met. Equal to or above 20%: condition not met.

Below, 4 molecules whose answers are already recorded.
>>> cat("CC(=O)N[C@@H]1[C@@H](N)[C@@H](F)[C@](F)(C(=O)OCC2CCCCC2)O[C@H]1[C@H](O)[C@H](O)CO")
"condition not met"
>>> cat("COC(=O)[C@]1(F)O[C@@H]([C@H](O)[C@H](O)CO)[C@H](NC(C)=O)[C@@H](N)[C@H]1F")
"condition met"
>>> cat("COC(=O)[C@]1(F)O[C@@H]([C@H](O)[C@H](O)COC(=O)OCC(C)C)[C@H](NC(C)=O)[C@@H](N)[C@H]1F")
"condition met"
>>> cat("CC(=O)N[C@@H]1[C@@H](N)[C@@H](F)[C@](F)(C(=O)OC(C)C)O[C@H]1[C@H](O)[C@H](O)CO")
"condition not met"

Here's an entry: `CCCCCOC(=O)[C@]1(F)O[C@@H]([C@H](O)[C@H](O)CO)[C@H](NC(C)=O)[C@@H](N)[C@H]1F` . Is its remaining at 1 h, 10 µM below 20%?
condition not met

###

- assay: Metabolic stability in mouse plasma at 10 uM measured at 15 mins
- Assay type: ADME, cell-free
- particulars: read-out: Stability
assay metric: remaining at 0.25 h, 10 µM (%)
Number in %, nothing else.

Identify measured remaining at 0.25 h, 10 µM corresponding to `CCCCCOC(=O)[C@]1(F)O[C@@H]([C@H](O)[C@H](O)CO)[C@H](NC(C)=O)[C@@H](N)[C@H]1F`
81

Identify measured remaining at 0.25 h, 10 µM corresponding to `CC(=O)N[C@@H]1[C@@H](N)[C@@H](F)[C@](F)(C(=O)OC(C)C)O[C@H]1[C@H](O)[C@H](O)CO`
100

Identify measured remaining at 0.25 h, 10 µM corresponding to `CC(=O)N[C@@H]1[C@@H](N)[C@@H](F)[C@](F)(C(=O)OCC2CCCCC2)O[C@H]1[C@H](O)[C@H](O)CO`
98

Identify measured remaining at 0.25 h, 10 µM corresponding to `COC(=O)[C@]1(F)O[C@@H]([C@H](O)[C@H](O)COC(=O)OCC(C)C)[C@H](NC(C)=O)[C@@H](N)[C@H]1F`
81

Identify measured remaining at 0.25 h, 10 µM corresponding to `COC(=O)[C@]1(F)O[C@@H]([C@H](O)[C@H](O)CO)[C@H](NC(C)=O)[C@@H](N)[C@H]1F`
90

###

- Tested on: Mus musculus
- assay: Total plasma concentration in CD1 mouse assessed as (2R,3R,4R,5R,6R)-5-acetamido-4-amino-2,3-difluoro-6-((1R,2R)-1,2,3-trihydroxypropyl)tetrahydro-2H-pyran-2-carboxylic acid at 30 mg/kg, po measured at 20 mins by reversed-phase UPLC/MS analysis
- Assay type: ADME, organism-based
- Parameters: dose 30 mg/kg, route oral
- particulars: in vivo
Listed here: items and their measured concentration.
Number in nM, nothing else.

Identify measured concentration corresponding to `CC(=O)N[C@@H]1[C@@H](N)[C@@H](F)[C@](F)(C(=O)OCC2CCCCC2)O[C@H]1[C@H](O)[C@H](O)CO`
3410

Identify measured concentration corresponding to `COC(=O)[C@]1(F)O[C@@H]([C@H](O)[C@H](O)COC(=O)OC(C)C)[C@H](NC(C)=O)[C@@H](N)[C@H]1F`
1680

Identify measured concentration corresponding to `COC(=O)CNC(=O)[C@]1(F)O[C@@H]([C@H](O)[C@H](O)CO)[C@H](NC(C)=O)[C@@H](N)[C@H]1F`
2550

Identify measured concentration corresponding to `CC(=O)N[C@@H]1[C@@H](N)[C@@H](F)[C@](F)(C(=O)OCC(=O)N(C)C)O[C@H]1[C@H](O)[C@H](O)CO`
5690

Identify measured concentration corresponding to `CC(=O)N[C@@H]1[C@@H](N)[C@@H](F)[C@](F)(C(=O)OC2CCCC2)O[C@H]1[C@H](O)[C@H](O)CO`
1030

Identify measured concentration corresponding to `CC(=O)N[C@@H]1[C@@H](N)[C@@H](F)[C@](F)(C(=O)OC(C)C)O[C@H]1[C@H](O)[C@H](O)CO`
12200

Identify measured concentration corresponding to `COC(=O)[C@]1(F)O[C@@H]([C@H](O)[C@H](O)COC(=O)OCC(C)(C)C)[C@H](NC(C)=O)[C@@H](N)[C@H]1F`
2100

Identify measured concentration corresponding to `CC(=O)N[C@@H]1[C@@H](N)[C@@H](F)[C@](F)(C(=O)NCCO)O[C@H]1[C@H](O)[C@H](O)CO`
690
